system: Amarantus retroflexus (AMARE); assay: Biological Example 2 comparative herbicidal data, post-emergence glasshouse screen; type: in vivo; conditions: Amaranthus retroflexus, 30 g/ha application rate, read-out: Post-emergence herbicidal activities (percentage phytotoxicity) AMARE
endpoint_name: pest or weed control at 30 g/ha (%)
Kindly provide the numeric value in % only, without the unit symbol.

Previously resolved entries follow.
CC#Cc1cc(C)c(C2C(=O)C3CCC(C3)C2=O)c(C)c1 (stereo not shown) | 10
COc1cccc(Cl)c1C1C(=O)CC2(CCOCC2)CC1=O [Compound X-6, reference compound] | 20
COc1cc(C)cc(Cl)c1C1C(=O)C2CCC(C2)C1=O (stereo not shown) [Compound X-5, reference compound] | 30
CCC#Cc1cc(Cl)c(C2C(=O)C3CCC(C3)C2=O)c(OC)c1 (stereo not shown) | 20
CC#Cc1cc(Cl)c(C2C(=O)CC3(CCOCC3)CC2=O)c(OC)c1 | 80
C#Cc1cc(Cl)c(C2C(=O)CC3(CCOCC3)CC2=O)c(OC)c1 | 0

INPUT: Entry `C#Cc1cc(Cl)c(C2C(=O)CCCC2=O)c(OC)c1` : reported pest or weed control at 30 g/ha = ?
OUTPUT: 0

INPUT: Fill in: pest or weed control at 30 g/ha of CSCCC1CC(=O)C(c2c(C)cc(C)cc2C)C(=O)C1 (stereo not shown) [Compound X-7, reference compound] is ___
OUTPUT: 0

---

tested on: Abutilon theophasti Medik. (ABUTH); experiment: Test 1A glasshouse assay for herbicidal activity, post-emergence; assay type: in vivo; conditions: 312 h, 250 g/ha, evaluated after 13 days, read-out: percentage phytotoxicity ABUTH
Each item that follows carries a reported pest or weed control at 250 g/ha.

CC#Cc1cc(Cl)c(C2=C(OC(=O)SCC)C3CCC(C3)C2=O)c(OCC(F)(F)F)c1 (centres unmarked) | 0%

INPUT: # value lookup — system Abutilon theophasti Medik. (ABUTH), readout pest or weed control at 250 g/ha, item `CC#Cc1cc(Cl)c(C2C(=O)CC3(CCOCC3)CC2=O)c(OC)c1`
OUTPUT: 80%

INPUT: Lookup: pest or weed control at 250 g/ha / Abutilon theophasti Medik. (ABUTH) / CC#Cc1cc(Cl)c(C2C(=O)C3CCC(C3)C2=O)c(OC)c1 (centres unmarked)
OUTPUT: 50 to 60%

INPUT: I'm curious: which pest or weed control at 250 g/ha was measured for CC#Cc1cc(Cl)c(C2C(=O)C3CCC(C3)C2=O)c(OCC(F)(F)F)c1 (centres unmarked) tested on Abutilon theophasti Medik. (ABUTH)?
OUTPUT: 0%

---

The reader will find reported pest or weed control at 30 g/ha values listed item by item below.
test system: Digitaria sanguinalis (DIGSA); assay: Test 1B glasshouse assay for herbicidal activity, post-emergence; assay type: in vivo; details: 360 h, 30 g/ha application rate
Please state the figure in %; there is no need to write the unit.

Here are 6 molecules together with their reported answers.
CC#Cc1cc(Cl)c(C2C(=O)C3CCC(C3)C2=O)c(OC)c1 (stereo not drawn) | 100
Cc1cc(C#CCl)cc(C)c1C1C(=O)CC(CC2CCOCC2)CC1=O (stereo not drawn) | 100
CC#Cc1cc(C)c(C2C(=O)C3CCC(C3)C2=O)c(OC)c1 (stereo not drawn) | 90
CC#Cc1cc(C)c(C2C(=O)C3CCC(C3)C2=O)c(C)c1 (stereo not drawn) | 90
CC#Cc1cc(Cl)c(C2C(=O)C3CCC(C3)C2=O)c(OCC)c1 (stereo not drawn) | 80
CC#Cc1cc(C)c(C2C(=O)CC(CC3CCOCC3)CC2=O)c(C)c1 (stereo not drawn) | 100

INPUT: Entry CC#Cc1cc(C)c(C2=C(OC(C)=O)CC(c3ccccn3)CC2=O)c(C)c1 (stereo not drawn) : reported pest or weed control at 30 g/ha = ?
OUTPUT: 90

INPUT: Recorded pest or weed control at 30 g/ha for CC#Cc1cc(C)c(C2=C(OC(=O)OC)CC(c3ccccn3)CC2=O)c(C)c1 (stereo not drawn) , please?
OUTPUT: 80

INPUT: // returns reported pest or weed control at 30 g/ha for input Cc1cc(C#CCl)cc(C)c1C1C(=O)C2CCC(C2)C1=O (stereo not drawn)
OUTPUT: 100
